tested on: HepG2-TUBA1B-RELA; assay: phenotypically active (imaging signature differs from DMSO and reproducible) at any of 0.3-9 uM (binary (1 = active, 0 = inactive)); higher = active; conditions: treatment time: 24 h
Structures can show the parent of a compound that is named as a salt.
Possible outcomes: active, inactive

Molecule	Class name
O=S(=O)(NCCSSCCNS(=O)(=O)c1cc(Cl)ccc1Cl)c1cc(Cl)ccc1Cl	inactive
COc1ccc(S(=O)(=O)ON=C2C=C(C)C(=O)C(C)=C2)cc1	inactive
O=C1c2ccccc2-c2nc3nonc3nc21	active
COC(=O)[C@H]1[C@H]2C[C@H]3c4[nH]c5ccccc5c4CCN3C[C@@H]2CC[C@@H]1O [Corynanthine hydrochloride]	inactive
CN1C(=O)CC[C@H]1c1cccnc1 [(-)-Cotinine]	inactive
Cc1nc(NC(=O)N2CCC[C@H]2C(N)=O)sc1-c1ccnc(C(C)(C)C(F)(F)F)c1	active
C[C@H](NCCc1ccc(O)cc1)[C@H](O)c1ccc(O)cc1	inactive
COc1ccc2cc1Oc1ccc(cc1)C[C@H]1c3cc(c(OC)cc3CCN1C)Oc1c(OC)c(OC)cc3c1[C@H](C2)N(C)CC3	active
CO[C@H]1C=CO[C@@]2(C)Oc3c(C)c(O)c4c(O)c(c5c(nc6cc(C)ccn65)c4c3C2=O)NC(=O)C(C)=CC=C[C@H](C)[C@H](O)[C@@H](C)[C@@H](O)[C@@H](C)[C@H](OC(C)=O)[C@@H]1C	inactive
CC/C(=C(/c1ccccc1)c1ccc(OCCN(C)C)cc1)c1ccccc1	active
NS(=O)(=O)c1cc2c(cc1C(F)(F)F)NC(Cc1ccccc1)NS2(=O)=O (stereo not drawn) [bendroflumethiazide]	inactive
CCN(CC)CCNc1ccc(CO)c2sc3ccccc3c(=O)c12	active
O=P(O)(O)C(O)(Cn1ccnc1)P(=O)(O)O	inactive
CNCC(O)c1ccc(OC(=O)C(C)(C)C)c(OC(=O)C(C)(C)C)c1 (stereo not drawn)	inactive
CC(C)(C#N)c1cc(Cn2cncn2)cc(C(C)(C)C#N)c1	inactive
O=C1NC(=O)/C(=C\c2cccc(C(F)(F)F)c2)S1	inactive
c1ccc(CN(CC2=NCCN2)c2ccccc2)cc1	inactive
CC[C@H](CO)Nc1nc(NCc2ccccc2)c2ncn(C(C)C)c2n1	active
